All values here come from PubChem BioAssay (NCI).

# maps each entry to its growth
# System: SR leukemia
# Protocol: NCI-60 one-dose screen, 48 h (100 = growth as untreated, 0 = no growth, -100 = all killed)
# Run Conditions: 10 µM unless noted
About 83,000 compounds went through this panel and 20% of them were active in at least one assay; those are over-represented in the sample as a whole.
Reply with just the number (in %).

Reference set (4 entries):
compound=CCCCCc1ccc(S(=O)(=O)Nc2cc(-c3csc(NC(=O)CN4CCN(C)CC4)n3)ccc2N2CCN(C)CC2)cc1 measure_name=growth number=-40.7
compound="CCNC(=O)N1CCc2cc(OC)c(OCCc3ccc(OC)cc3)cc2C1c1ccc([N+](=O)[O-])cc1C (centres undefined)" measure_name=growth number=8.11
compound=Nc1nc(-c2cccc([N+](=O)[O-])c2)c(N=Nc2cccc([N+](=O)[O-])c2)s1 measure_name=growth number=67.5
compound="CCO/C=N/C1=C(C#N)C(c2ccc(OC)cc2)c2sc3c(C)cccc3c2O1 (centres undefined)" measure_name=growth number=17.9

Enquiry: Indicate its recorded growth; the compound in question is CCOC(=O)C(=O)/C(=C\c1ccc(Cl)cc1)C(=O)N1C(=S)NC(=O)C1CC(C)C (centres undefined)
Return: 105

Enquiry: Indicate its recorded growth; the compound in question is O=C(NNc1nc2cc(F)c(F)cc2n2c(CN3CC4CNCC4C3)ccc12)c1cnccn1 (centres undefined)
Return: 12

Enquiry: Indicate its recorded growth; the compound in question is CN1c2ccccc2Sc2cc(C=C(C#N)C#N)ccc21
Return: 105

Enquiry: Indicate its recorded growth; the compound in question is Nc1ncc(-c2ccc3ncnc(N4CCc5cc(F)c(F)cc54)c3c2)cn1
Return: 23.9

Enquiry: Indicate its recorded growth; the compound in question is O=C(NNc1nc2cc(F)ccc2n2c(CO)ccc12)c1cnccn1
Return: 5.16

Enquiry: Indicate its recorded growth; the compound in question is Cc1cccc2c3c(sc12)C(c1ccc(F)cc1)C(C#N)=C(/N=C/c1ccc(Cl)cc1)O3 (centres undefined)
Return: 10.5

Enquiry: Indicate its recorded growth; the compound in question is COc1ccc(-c2nn(-c3ccc(S(C)(=O)=O)cc3)cc2/C=N/O)cc1
Return: 107

Enquiry: Indicate its recorded growth; the compound in question is CC1(C)[C@@H](O)CC[C@]2(C)[C@H]3CC[C@@H]4[C@H]5[C@H](C(=O)/C=C\c6ccc([N+](=O)[O-])cc6)CC[C@]5(O)CC[C@@]4(C)[C@]3(C)CC[C@@H]12
Return: 1.04

Enquiry: Indicate its recorded growth; the compound in question is NC(N)=Nc1ccc(Oc2ccc(Nc3ccc(Cl)c(C(F)(F)F)c3)cc2)cc1
Return: -4.22

Enquiry: Indicate its recorded growth; the compound in question is COc1ccccc1-n1cc(C#N)c(N)c1C(=O)c1ccc(Br)cc1
Return: 40.3

Enquiry: Indicate its recorded growth; the compound in question is CNC(=O)c1cc(Oc2ccc3nc(NC(=O)c4cccc(OC(F)(F)F)c4)sc3c2)ccn1
Return: 58.3

Enquiry: Indicate its recorded growth; the compound in question is COc1cc2oc(-c3cccc(C(=O)N[C@@H](CC(C)C)C(=O)OC(C)(C)C)c3)cc(=O)c2c(OC)c1OC
Return: 42.1

Enquiry: Indicate its recorded growth; the compound in question is NC(N)=Nc1ccc(Oc2cccc(NC(N)=Nc3ccc(Cl)c(C(F)(F)F)c3)c2)cc1
Return: 7.43

Enquiry: Indicate its recorded growth; the compound in question is COc1ccc(/C=N/NC(=O)c2cn(C3CC3)c3c(OC)c(N4CC5CCCNC5C4)c(F)cc3c2=O)cc1 (centres undefined)
Return: -3.21

Enquiry: Indicate its recorded growth; the compound in question is COc1ccc(S(=O)(=O)NCCCNc2nccc(-c3cn(C(C)(C)C)nc3-c3ccc(Cl)c(OC)c3)n2)cc1
Return: 48.8
